Each item that follows carries a reported IC50.
System: NLRP3
test-summary: IL-1β secretion assay in PMA-differentiated, LPS/nigericin-stimulated THP-1 cells (384-well, ELISA read-out)
Format: cell-based, human
run-conditions: Homo sapiens, THP-1, Table 4; IL-1β secretion, LPS/nigericin-stimulated THP-1 cells; read-out: IC50

{"columns": ["compound", "IC50"],
 "data": [
  ["O=C(CN1CC2(CC2)c2cc(Br)ccc2C1=O)Nc1ncc(-n2cccn2)cn1 [Example 48]", "238 nM"],
  ["Cn1cc(N2CCC(NC(=O)CN3CC4(CC4)c4cc(Br)ccc4C3=O)C2)cn1 (centres unmarked) [Example 416]", "20800 nM"],
  ["O=C(CN1CC2(CC2)c2cc(Br)ccc2C1=O)Nc1nn2ccccc2c1F [Example 403]", "2320 nM"],
  ["O=C(CN1CC(C(F)F)c2cc(Br)ccc2C1=O)Nc1ncc(F)cn1 (centres unmarked) [Example 95]", "320 nM"],
  ["O=C(CN1CC2(CC2)c2cc(Br)ccc2C1=O)Nc1ncc(-n2cccn2)cc1F [Example 186]", "5230 nM"],
  ["O=C(CN1CC2(CC2)c2cc(Br)ccc2C1=O)Nc1ccc2ncsc2c1 [Example 140]", "889 nM"],
  ["O=C(CN1CC2(CC2)c2cc(Br)ccc2C1=O)N[C@H]1C[C@H](C(F)(F)F)C1 [Example 54]", "1550 nM"],
  ["O=C(CN1CC2(CC2)c2cc(Br)ccc2C1=O)NCC1COC1 [Example 117]", "19800 nM"],
  ["O=C(CN1CC2(CC2)c2cc(Br)ccc2C1=O)Nc1ccc(=O)[nH]n1 [Example 430]", "634 nM"],
  ["CC(C)(O)C1CCN(C(=O)CN2CC3(CC3)c3cc(Br)ccc3C2=O)C1 (centres unmarked) [Example 66]", "26200 nM"],
  ["Cc1cc(NC(=O)CN2CC3(CC3)c3cc(Br)ccc3C2=O)n(C)n1 [Example 144]", "3910 nM"],
  ["O=C(CN1CC2(CC2)c2cc(Br)ccc2C1=O)N[C@H]1C[C@@H](CO)C1 [Example 64]", "6400 nM"],
  ["O=C(CN1CC2(CC2)c2cc(Br)ccc2C1=O)N[C@@H]1CCCN(C2CC2)C1 [Example 268]", "192 nM"],
  ["O=C(CN1CC2(CC2)c2c(ccc(C3(F)CC3)c2F)C1=O)Nc1ncc(F)cn1 [Example 307]", "898 nM"],
  ["O=C(CN1CC2(CCCC2)c2cc(Br)ccc2C1=O)Nc1ncccn1 [Example 75]", "12300 nM"],
  ["O=C(CN1C[C@]2(C[C@H]2F)c2cc(C3CC3)ccc2C1=O)Nc1ncc(Cl)cn1 [Example 232]", "28 nM"],
  ["O=C(CN1CC2(CC2)c2cc(Br)ccc2C1=O)Nc1ncncc1F [Example 6]", "141 nM"],
  ["O=C(CN1CC2(CC2)c2cc(Br)ccc2C1=O)Nc1ncc(OC(F)F)cn1 [Example 270]", "286 nM"],
  ["Cc1cnc2ccc(NC(=O)CN3CC4(CC4)c4cc(Br)ccc4C3=O)nn12 [Example 399]", "1350 nM"],
  ["O=C(CN1CC2(CC2)c2cc(I)ccc2C1=O)Nc1ncc(F)cn1 [Example 90]", "34 nM"],
  ["O=C(CN1CC2(CC2)c2cc(F)ccc2C1=O)Nc1ncc(F)cn1 [Example 215]", "6860 nM"],
  ["N#Cc1cnc(NC(=O)CN2C[C@@]3(C[C@@H]3F)c3c(ccc(C4CC4)c3F)C2=O)nc1 [Example 230]", "51 nM"],
  ["O=C(CN1CC2(CC2)c2cc(C3CC3(F)F)ccc2C1=O)Nc1ncc(F)cn1 (centres unmarked) [Example 88]", "3610 nM"],
  ["Cc1nc2ccc(NC(=O)CN3CC4(CC4)c4cc(Br)ccc4C3=O)cc2s1 [Example 143]", "1410 nM"],
  ["O=C(CN1CC2(CC2)c2cc(Br)ccc2C1=O)Nc1ncc2ncsc2n1 [Example 409]", "1370 nM"],
  ["O=C(CN1CC2(CCC2)c2cc(Br)ccc2C1=O)Nc1ncccn1 [Example 32]", "1950 nM"],
  ["Cn1ncnc1NC(=O)CN1CC2(CC2)c2cc(Br)ccc2C1=O [Example 218]", "9180 nM"],
  ["COc1ncnc(NC(=O)CN2CC3(CC3)c3cc(Br)ccc3C2=O)c1F [Example 401]", "1890 nM"],
  ["O=C(CN1CC2(CC2)c2cc(Br)ccc2C1=O)Nc1ccc2c(c1)CCO2 [Example 135]", "1220 nM"],
  ["O=C(CN1CC2(CC2)c2cc(Br)ccc2C1=O)Nc1nc2ccncc2o1 [Example 212]", "589 nM"],
  ["O=C(CN1CC2(CC2)c2cc(C(F)(F)F)c(F)cc2C1=O)Nc1ncc(F)cn1 [Example 84]", "5980 nM"],
  ["O=C(CN1CC2(CC2)c2cc(Br)ccc2C1=O)Nc1ccnnc1 [Example 410]", "1520 nM"],
  ["COCC1CC(NC(=O)CN2CC3(CC3)c3cc(Br)ccc3C2=O)C1 (centres unmarked) [Example 382]", "8790 nM"],
  ["Cn1cnc2cc(NC(=O)CN3CC4(CC4)c4cc(Br)ccc4C3=O)ccc21 [Example 147]", "8120 nM"],
  ["O=C(CN1CC2(CC2)c2cc(Br)ccc2C1=O)NC1CCN(CCC(F)(F)F)CC1 [Example 366]", "19000 nM"]
]}

====

Tested on: NLRP3
test-summary: IL-1β secretion assay in PMA-differentiated, LPS/nigericin-stimulated THP-1 cells (384-well, ELISA read-out)
Format: cell-based, human
run-conditions: Homo sapiens, THP-1, Table 4; IL-1β secretion, LPS/nigericin-stimulated THP-1 cells; read-out: IC50
Description: Compounds as provided herein were tested in the following assay. Cell culture medium employed contained RPMI 1640 medium (89%), FBS (10%), Pen/Strep (1%), and 2-mercaptoethanol (0.05 mM). Freezing medium was made up of 90% FBS and 10% DMSO. […] All media was carefully aspirated from each culture flask. […] These supernatant aliquots were analyzed using an IL-Iβ detection kit as described below. If needed, the test samples could be snap frozen and stored at −80° C. until analyzed. […]
property-name: IC50 (nM)

{"columns": ["structure-as-smiles", "property-name", "experimental-value"],
 "data": [
  ["O=C(CN1CC2(CC2)c2cc(Br)ccc2C1=O)N[C@@H]1C[C@@H]2CC[C@H]1O2", "IC50", 9830],
  ["N#Cc1cnc(NC(=O)CN2C[C@]3(C[C@H]3F)c3cc(C4CC4)ccc3C2=O)nc1", "IC50", 45],
  ["COc1cnc(NC(=O)CN2CC3(CC3)c3cc(Br)ccc3C2=O)nc1", "IC50", 469],
  ["O=C(CN1CC2(CC2)c2cc(Br)ccc2C1=O)Nc1nc2ccc(F)cn2n1", "IC50", 281]
]}

====

System: NLRP3
test-summary: IL-1β secretion assay in PMA-differentiated, LPS/nigericin-stimulated THP-1 cells (384-well, ELISA read-out)
Type: cell-based, human
run-conditions: Homo sapiens, THP-1, Table 4; IL-1β secretion, LPS/nigericin-stimulated THP-1 cells; read-out: IC50
property-name: IC50 (µM)

{"columns": ["molecule", "experimental-value"],
 "data": [
  ["O=C(CN1C[C@@]2(C[C@@H]2F)c2c(ccc(Br)c2F)C1=O)Nc1ncc(F)cn1 (single isomer, unassigned) [Example 220]", 0.02],
  ["N#Cc1ccc2c(c1)C1(CC1)CN(CC(=O)Nc1ncc(F)cn1)C2=O [Example 177]", 4.41],
  ["Cc1nc(NC(=O)CN2CC3(CC3)c3cc(Br)ccc3C2=O)c(F)cc1C#N [Example 390]", 9.84],
  ["Cn1ccc(N2CCC(NC(=O)CN3CC4(CC4)c4cc(Br)ccc4C3=O)C2)n1 (stereo not shown) [Example 415]", 21]
]}

====

System: NLRP3
test-summary: IL-1β secretion assay in PMA-differentiated, LPS/nigericin-stimulated THP-1 cells (384-well, ELISA read-out)
Type: cell-based, human
run-conditions: Homo sapiens, THP-1, Table 4; IL-1β secretion, LPS/nigericin-stimulated THP-1 cells; read-out: IC50
property-name: IC50 (nM)

{"columns": ["molecule", "experimental-value"],
 "data": [
  ["Cc1nc(-c2cccc(NC(=O)CN3CC4(CC4)c4cc(Br)ccc4C3=O)c2)cs1 [Example 142]", 1780],
  ["O=C(CN1CC2(CC2)c2cc(Br)ccc2C1=O)Nc1ncc(C2CCCO2)cn1 (stereo not shown) [Example 359]", 603],
  ["O=C(CN1C[C@@]2(C[C@@H]2F)c2cc(Br)ccc2C1=O)Nc1ncc(F)cn1 (single isomer, unassigned) [Example 78]", 208],
  ["O=C(CN1CC2(CC2)c2c(ccc(C3C[C@@H]3F)c2F)C1=O)Nc1ncc(F)cn1 (single isomer, unassigned) [Example 305]", 662],
  ["O=C(CN1CC2(CC2)c2cc(Br)ccc2C1=O)Nc1nc2cc(C(F)(F)F)ccc2o1 [Example 358]", 1290],
  ["O=C(CN1CC2(CC2)c2cc(Br)ccc2C1=O)Nc1ccc2ncccc2c1 [Example 130]", 1230],
  ["O=C(CN1C[C@]2(C[C@H]2F)c2cc(Br)ccc2C1=O)Nc1ncc(Cl)cn1 [Example 110]", 12]
]}
